PROCEDURE DETAILS: Selectivity index, ratio of CC50 for african green monkey (Cercopithecus aethiops) Vero cells to IC50 for chloroquine-sensitive Plasmodium falciparum 3D7
Assay type: functional
Recorded Ratio CC50/IC50 by entry
A bare number is all that is needed in reply.

Known Ratio CC50/IC50 results, listed for orientation:
{"SMILES STR": "CN1CCN(c2nc(NCCNc3ccnc4cc(Cl)ccc34)nc(N3CCOCC3)n2)CC1", "Ratio CC50/IC50": 4692.08}
{"SMILES STR": "CCN(CC)CCNC(=O)C(=O)N1CCN(CCNc2ccnc3cc(Cl)ccc23)CC1", "Ratio CC50/IC50": 194}
{"SMILES STR": "O=C(NCCN1CCOCC1)C(=O)N1CCN(CCNc2ccnc3cc(Cl)ccc23)CC1", "Ratio CC50/IC50": 183.05}
{"SMILES STR": "CCCCNC(=O)C(=O)NCCNc1ccnc2cc(Cl)ccc12", "Ratio CC50/IC50": 18.88}
{"SMILES STR": "CN1CCN(c2nc(NCCNc3ccnc4cc(Cl)ccc34)nc(N3CCCCC3)n2)CC1", "Ratio CC50/IC50": 958.12}
{"SMILES STR": "CCN(CC)CCNC(=O)C(=O)NCCNc1ccnc2cc(Cl)ccc12", "Ratio CC50/IC50": 605.61}
{"SMILES STR": "Clc1ccc2c(NCCCNc3nc(NCCCN4CCOCC4)nc(N4CCOCC4)n3)ccnc2c1", "Ratio CC50/IC50": 706.15}
{"SMILES STR": "O=C(NCCCN1CCOCC1)C(=O)NCCNc1ccnc2cc(Cl)ccc12", "Ratio CC50/IC50": 1567.05}

# query: Ratio CC50/IC50 of entry CN(C)CCNC(=O)C(=O)N1CCN(CCNc2ccnc3cc(Cl)ccc23)CC1
65

# query: Ratio CC50/IC50 of entry CCCCNC(=O)C(=O)NCCCNc1ccnc2cc(Cl)ccc12
38.13

###

Recorded Ratio CC50/IC50 by entry
PROCEDURE DETAILS: Selectivity index, ratio of CC50 for african green monkey (Cercopithecus aethiops) Vero cells to IC50 for chloroquine-sensitive Plasmodium falciparum 3D7
Format: functional
A bare number is all that is needed in reply.

Known Ratio CC50/IC50 results, listed for orientation:
{"SMILES STR": "CN1CCN(c2nc(NCCCNc3ccnc4cc(Cl)ccc34)nc(N3CCOCC3)n2)CC1", "Ratio CC50/IC50": 704.25}
{"SMILES STR": "CCN(CC)CCNc1nc(NCCCNc2ccnc3cc(Cl)ccc23)nc(N2CCOCC2)n1", "Ratio CC50/IC50": 1068.32}
{"SMILES STR": "Clc1ccc2c(NCCNc3nc(NCCN4CCOCC4)nc(N4CCOCC4)n3)ccnc2c1", "Ratio CC50/IC50": 1176.4}
{"SMILES STR": "CN(C)CCNc1nc(NCCNc2ccnc3cc(Cl)ccc23)nc(N2CCCCC2)n1", "Ratio CC50/IC50": 1062.3}
{"SMILES STR": "CCN(CC)CCNc1nc(NCCNc2ccnc3cc(Cl)ccc23)nc(N2CCCCC2)n1", "Ratio CC50/IC50": 223.13}

# query: Ratio CC50/IC50 of entry Clc1ccc2c(NCCNc3nc(NCCCN4CCOCC4)nc(N4CCOCC4)n3)ccnc2c1
2405.86

# query: Ratio CC50/IC50 of entry O=C(NCCCN1CCOCC1)C(=O)N1CCN(CCNc2ccnc3cc(Cl)ccc23)CC1
1221.84

# query: Ratio CC50/IC50 of entry O=C(NCCNc1ccnc2cc(Cl)ccc12)C(=O)NCCN1CCOCC1
567.43

# query: Ratio CC50/IC50 of entry Clc1ccc2c(NCCCNc3nc(NCCCN4CCOCC4)nc(N4CCCCC4)n3)ccnc2c1
860.41

# query: Ratio CC50/IC50 of entry CN(C)CCNc1nc(NCCCNc2ccnc3cc(Cl)ccc23)nc(N2CCCCC2)n1
330.11
